Value source: patent US20220064312A1

target: human CCR8 (human) (UniProt P51685); test: cell-based or functional assay
Sequence (P51685 whole entry): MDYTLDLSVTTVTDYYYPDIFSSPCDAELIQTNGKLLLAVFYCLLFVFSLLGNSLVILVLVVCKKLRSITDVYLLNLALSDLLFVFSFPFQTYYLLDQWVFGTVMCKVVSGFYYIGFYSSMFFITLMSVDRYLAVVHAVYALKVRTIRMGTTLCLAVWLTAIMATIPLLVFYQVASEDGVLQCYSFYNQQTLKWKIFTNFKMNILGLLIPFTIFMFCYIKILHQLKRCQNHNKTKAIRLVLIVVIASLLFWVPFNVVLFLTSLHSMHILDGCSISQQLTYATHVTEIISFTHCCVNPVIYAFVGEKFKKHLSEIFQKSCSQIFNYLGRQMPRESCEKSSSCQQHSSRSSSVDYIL
Threshold check on IC50 ratio (WT IC50/mutant IC50): strictly below 0.2 is true; on or above 0.2 is false.

Asked: Consider h10A11 IGKV4-1/IGHV3-73 N53Q (antibody, name in Kabat numbering, V domains shown) VH: EVQLVESGGGLVQPGGSLKLSCAASGFAFNTYALYWVRQASGKGLEWVGRIRSKSQNYATYYADSVKDRFTISRDDSKNTAYLQMNSLKTEDTAVYYCTRARFYYSDYGYAMDYWGQGTLVTVSS VL: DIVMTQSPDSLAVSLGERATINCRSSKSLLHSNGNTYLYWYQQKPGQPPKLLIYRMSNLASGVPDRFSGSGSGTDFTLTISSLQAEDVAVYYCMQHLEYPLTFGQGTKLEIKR . Does its IC50 ratio (WT IC50/mutant IC50) lie strictly below 0.2?
Given back: true

Asked: Try h10A11 IGKV4-1/IGHV3-73 S100T (antibody, name in Kabat numbering, V domains shown) VH: EVQLVESGGGLVQPGGSLKLSCAASGFAFNTYALYWVRQASGKGLEWVGRIRSKSNNYATYYADSVKDRFTISRDDSKNTAYLQMNSLKTEDTAVYYCTRARFYYTDYGYAMDYWGQGTLVTVSS VL: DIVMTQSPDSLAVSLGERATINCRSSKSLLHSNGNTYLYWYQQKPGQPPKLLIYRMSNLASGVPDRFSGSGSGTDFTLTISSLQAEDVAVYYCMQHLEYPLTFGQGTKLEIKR next.
Given back: false

Asked: Follow-up item: h10A11 IGKV4-1/IGHV3-73 T31A (antibody, name in Kabat numbering, V domains shown) VH: EVQLVESGGGLVQPGGSLKLSCAASGFAFNAYALYWVRQASGKGLEWVGRIRSKSNNYATYYADSVKDRFTISRDDSKNTAYLQMNSLKTEDTAVYYCTRARFYYSDYGYAMDYWGQGTLVTVSS VL: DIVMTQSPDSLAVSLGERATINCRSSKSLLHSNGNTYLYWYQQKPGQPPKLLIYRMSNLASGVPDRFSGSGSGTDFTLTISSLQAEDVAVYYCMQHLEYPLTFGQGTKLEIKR
Given back: true

Asked: Let us now turn to h10A11 IGKV4-1/IGHV3-73 Y98F (antibody, name in Kabat numbering, V domains shown) VH: EVQLVESGGGLVQPGGSLKLSCAASGFAFNTYALYWVRQASGKGLEWVGRIRSKSNNYATYYADSVKDRFTISRDDSKNTAYLQMNSLKTEDTAVYYCTRARFFYSDYGYAMDYWGQGTLVTVSS VL: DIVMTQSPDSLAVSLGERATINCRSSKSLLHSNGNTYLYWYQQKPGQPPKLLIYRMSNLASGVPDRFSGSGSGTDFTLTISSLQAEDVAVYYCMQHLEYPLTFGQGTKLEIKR
Given back: true

Asked: Now try h10A11 IGKV4-1/IGHV3-73 Y100bF (antibody, name in Kabat numbering, V domains shown) VH: EVQLVESGGGLVQPGGSLKLSCAASGFAFNTYALYWVRQASGKGLEWVGRIRSKSNNYATYYADSVKDRFTISRDDSKNTAYLQMNSLKTEDTAVYYCTRARFYYSDFGYAMDYWGQGTLVTVSS VL: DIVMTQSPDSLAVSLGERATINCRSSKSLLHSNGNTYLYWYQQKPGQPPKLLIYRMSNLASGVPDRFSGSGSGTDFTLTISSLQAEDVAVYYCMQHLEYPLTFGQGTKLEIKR .
Given back: false
